molecular target: Rab6B^Q72L L11E, GTPase domain (mouse, UniProt P61294 8-176, Q72L | L11E); assay: ITC
Sequence (P61294 8-176 L11E/Q72L): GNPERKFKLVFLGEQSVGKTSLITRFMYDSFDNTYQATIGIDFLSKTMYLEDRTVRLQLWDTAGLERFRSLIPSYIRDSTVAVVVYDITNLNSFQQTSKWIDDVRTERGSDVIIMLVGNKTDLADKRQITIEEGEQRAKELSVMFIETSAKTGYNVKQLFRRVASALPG
Reported Property: Kd

Given ELKS1_RBD, Rab-binding domain of ELKS1 (residues 849-922) (domain or fragment) RKHLEEVLEMKQEALLAAISEKDANIALLELSSSKKKTQEEVAALKREKDRLVQQLKQQTQNRMKLMADNYEDD , state its recorded Kd.
> 50 µM

These entries and their values trace back to paper PMC10267580.
